Each entry below carries its recorded TGI.
# System: A549 NSCLC
# Assay Overview: NCI tumour cell line growth inhibition, 48 h
# number only, unit µM dropped from output

Here is how some compounds turned out for TGI.
Compound: COc1ccc(NC(=S)NNC(=O)c2cc(-c3ccccc3)nc3ccccc23)cc1
Unit String: µM
TGI: 47

Compound: Cc1ccc2cnc(N)c(C#Cc3cncc(C(=O)Nc4ccc(CN5CCN(C)CC5)c(C(F)(F)F)c4)c3)c2c1
Unit String: µM
TGI: 1.19

Compound: O=C(Nc1ccc(-c2ccnc(Nc3ccc(N4CCOCC4)cc3)n2)cc1)C1CCCN1 (stereo not given)
Unit String: µM
TGI: 35.3

Now for a further compound.
Prompt: Answer with reported TGI of NC(=S)N/N=C\c1nccc2c(C(F)(F)C(F)(F)C(F)(F)F)cccc12
Response: 1.1

* * *

# Test system: SK-MEL-28 melanoma
# Assay Overview: NCI tumour cell line growth inhibition, 48 h
Measured Property: GI50

Here is how some molecules turned out for GI50.
Smiles Text: C[C@H]1CC2=CC(=O)CC[C@]2(C)[C@H]2CC[C@@]3(C)[C@@H](CC[C@]3(C)O)[C@H]12
GI50: 29.3 µM

Smiles Text: C/C=C/C(=O)[O-].N.N.N.N.N.[Co+3].[O-][Cl+3]([O-])([O-])[O-]
GI50: > 100 µM

Smiles Text: CS(=O)(=O)Nc1cc(-c2ccc3ncnc(Nc4cccc(Cl)c4F)c3c2)cnc1Cl
GI50: 1.59 µM

Smiles Text: COc1cc(/C=C\c2cc(OC)c(OC)c(OC)c2)cc(NS(=O)(=O)c2cccc(Cl)c2)c1OC
GI50: 1.61 µM

Smiles Text: CN(C)CCNc1c2c(c(NCCN(C)C)c3c(CO)c[nH]c13)C(=O)c1ccccc1C2=O
GI50: 5.01 µM

Now for a further molecule.
Prompt: Answer with reported GI50 of NC1CCCCC1N.O=S(=O)([O-])CCCN1CCN(CCO)CC1.O=S(=O)([O-])CCCN1CCN(CCO)CC1.[Pt+4]
Response: 8.22 µM

* * *

# Test system: SN12C renal
# Assay Overview: NCI tumour cell line growth inhibition, 48 h; in the data active = GI50 below about 0.43 µM; inactive = the rest
Choose the fitting class; nothing outside 1 (yes) (active), 0 (no) (inactive) is accepted.

Compound: CCCNc1cccc(-n2ncc3c(N/N=C/c4ccncc4)ncnc32)c1
Assigned Class: 0 (no)
--
Compound: CC(=O)O[C@H](C[C@H](C(C)C)N(C)C(=O)[C@@H](NC(=O)[C@H]1CCCCN1C)C(C)(C)C)c1nc(C(=O)N[C@@H](Cc2ccccc2)C[C@H](C)C(=O)O)cs1
Assigned Class: 1 (yes)
--
Compound: Cc1cc(S(=O)(=O)Nc2nc3cc(-c4ccsc4)sc3c(=O)n2N)c(S)cc1Cl
Assigned Class: 0 (no)

Now examine the next entry.
Prompt: Could you please tell me the result logged for CCC(=O)OC1=CN2C(=NC(c3ccc(N)cc3)=CC2c2cc(OC)c(OC)c(OC)c2)S1 (centres undefined) in this assay?
Response: 0 (no)

* * *

Each entry below carries its recorded TGI.
# System: U251 CNS
# Assay Overview: NCI tumour cell line growth inhibition, 48 h
# number only, unit µM dropped from output

Molecule: O=C1C2=C(c3ccccc31)C(c1ccc(Cl)cc1)NC(=S)N2 (centres undefined)
TGI / µM: 33.6
--
Molecule: COc1cc(/C=C/c2cc(/C=C/c3ccc(O)c(OC)c3)[nH]c(=O)n2)ccc1O
TGI / µM: 13.5
--
Molecule: CS(=O)(=O)Nc1cc(-c2ccc3ncnc(Nc4cccc(Cl)c4F)c3c2)cnc1Cl
TGI / µM: 14.9

Now for a further molecule.
Prompt: Answer with reported TGI of Cc1cc(Cl)ccc1NC(=O)NC(C)(C)COC(=O)Nc1cccc(Cl)c1
Response: 19.3

* * *

Each entry below carries its recorded TGI.
# System: T-47D breast
# Assay Overview: NCI tumour cell line growth inhibition, 48 h

Here is how some molecules turned out for TGI.
Molecule: CCOC(=O)c1cn(C)nc1N/C(C)=C\C(=O)c1ccccc1
TGI: > 100 µM
--
Molecule: O=C(Nc1cccc([N+](=O)[O-])c1)c1cc2ccccc2cc1O
TGI: 7.88 µM
--
Molecule: COc1cc(-c2[o+]c3cc(O)cc(OC4OC(CO)C(O)C(O)C4O)c3cc2OC2OC(CO)C(O)C(O)C2O)cc(OC)c1O (centres undefined)
TGI: > 100 µM
--
Molecule: Cc1cccc2c1C(=O)[C@@](C)([C@]1(C)Nc3cccc(C)c3C1=O)N2
TGI: > 100 µM

Prompt: Answer with reported TGI of CC1(C)N=C(N)N=C(N)N1c1ccc(OCCCCNC(=O)c2ccc(S(=O)(=O)F)cc2)c(Cl)c1
Response: > 100 µM

Prompt: Answer with reported TGI of CCCNc1cccc(-n2ncc3c(N/N=C/c4ccncc4)ncnc32)c1
Response: > 25 µM

Prompt: Answer with reported TGI of COc1cc(/C=C\c2cc(OC)c(OC)c(OC)c2)cc(NS(=O)(=O)c2cccc(Cl)c2)c1OC
Response: > 100 µM

Prompt: Answer with reported TGI of C=C1C(=O)O[C@H]2C3C(=C(C)CC[C@@H]12)C(=O)[C@@H]1OC31C (some centres undefined)
Response: 3.96 µM

Prompt: Answer with reported TGI of CN(C)c1ccc(N=C(C#N)c2nc(N)nc(N3CCN(c4ccccc4)CC3)n2)cc1
Response: > 50 µM

Prompt: Answer with reported TGI of COc1ccc(C(C)NNC(=O)c2ccncc2)cc1F (centres undefined)
Response: > 100 µM

Prompt: Answer with reported TGI of COC(=O)C1=C(C)NC2(C)OC(C)(O)C(C(C)=O)C12C(C)=O (centres undefined)
Response: > 100 µM

Prompt: Answer with reported TGI of O[C@H](CN1CC1)[C@@H](O)CN1CC1
Response: 66.6 µM

Prompt: Answer with reported TGI of N#Cc1c(-c2ccc(Cl)cc2)cc(-c2nc3ccccc3[nH]2)nc1N
Response: 19.4 µM

Prompt: Answer with reported TGI of c1ccc2c(c1)c1c3n2-c2cc(on2)C3CCC1 (centres undefined)
Response: > 100 µM

Prompt: Answer with reported TGI of O=c1oc2ccccc2c(O)c1Cc1cccc(Cc2c(O)c3ccccc3oc2=O)c1
Response: > 100 µM

Prompt: Answer with reported TGI of c1ccc(CNc2ncnc3n[nH]nc23)cc1
Response: > 100 µM

Prompt: Answer with reported TGI of O=c1oc2cc(OS(=O)(=O)c3ccccc3)ccc2c2c1CCCCC2
Response: > 100 µM

Prompt: Answer with reported TGI of Cc1ccc(S(=O)(=O)c2ccsc2N)cc1
Response: > 100 µM

Prompt: Answer with reported TGI of Cc1nnc2sc(-c3ccc([N+](=O)[O-])o3)nn12
Response: 62.7 µM

Prompt: Answer with reported TGI of C=Cc1cnc([N+](=O)[O-])n1C
Response: > 100 µM

Prompt: Answer with reported TGI of Cc1cccc(C(O)c2cccnc2)c1O (centres undefined)
Response: > 100 µM

Prompt: Answer with reported TGI of COc1cc(CNC(=O)CCSc2nc3ccccc3c(=O)n2Cc2cc(OC)c(OC)c(OC)c2)cc(OC)c1OC
Response: 34 µM

Prompt: Answer with reported TGI of FC(F)(F)c1cc(NC2=NCCN=C(Nc3cc(C(F)(F)F)cc(C(F)(F)F)c3)SS2)cc(C(F)(F)F)c1
Response: 23.7 µM

Prompt: Answer with reported TGI of COC(=O)C1[C@H](C(=O)OC)C1(Br)CBr (some centres undefined)
Response: > 100 µM

* * *

Each entry below carries its recorded TGI.
# Tested on: OVCAR-5 ovarian
# Assay Overview: NCI tumour cell line growth inhibition, 48 h

Smiles Text: COc1ccc(/C=C/c2cnc3ccccc3n2)cc1OC
TGI: > 100 µM
--
Smiles Text: Cc1[nH]n(-c2ccccc2)c(=O)c1C(=O)c1ccccc1
TGI: > 25 µM

Now for a further compound.
Prompt: Output reported TGI of the compound COC(=O)C[C@H](CCSC)NC(=O)C[C@H](CCSC)NC(=O)C[C@H](CCSC)NC(=O)OC(C)(C)C on OVCAR-5 ovarian.
Response: > 100 µM

* * *

# Tested on: HOP-92 NSCLC
# Assay Overview: NCI tumour cell line growth inhibition, 48 h
Measured Property: TGI

Here is how some compounds turned out for TGI.
Compound: COc1cc(-c2[o+]c3cc(O)cc(OC4OC(CO)C(O)C(O)C4O)c3cc2OC2OC(CO)C(O)C(O)C2O)cc(OC)c1O (stereo not given)
TGI: > 100 µM
--
Compound: OC(O)(C(F)(F)F)C(F)(F)F
TGI: > 100 µM
--
Compound: Cc1nn2c(/C=C3\C(=O)Nc4ccccc43)c(C)nc2s1
TGI: > 100 µM
--
Compound: CC(C)N(Cc1ccccc1)S(=O)(=O)c1n[nH]c(C(C)(C)C)n1
TGI: > 100 µM
--
Compound: CCOC(=O)CCC(C(=O)OCC)n1nnc2cc(Nc3c(C)[n+]([O-])c4ccc(Cl)cc4[n+]3[O-])ccc21 (stereo not given)
TGI: > 100 µM

Prompt: Answer with reported TGI of COc1ccc(C2=NNC(=O)c3ccccc3N2c2nc(-c3cccs3)nc3ccc(Br)cc23)cc1
Response: > 100 µM

Prompt: Answer with reported TGI of [N-]=[N+]=Nc1c(Br)c(=O)[nH]c(=O)n1COCCO
Response: > 100 µM

Prompt: Answer with reported TGI of N#C/C(=C\c1cccnc1)c1nc2ccccc2o1
Response: > 100 µM

Prompt: Answer with reported TGI of COc1ccc(C(C)NNC(=O)c2ccncc2)cc1F (stereo not given)
Response: > 100 µM

Prompt: Answer with reported TGI of CCCNc1cccc(-n2ncc3c(N/N=C/c4ccncc4)ncnc32)c1
Response: > 25 µM
